tested_target: human P-Selectin-IgG-chimera (Homo sapiens, UniProt P16109)
Sequence (P16109 42-771 limits assumed, change not shown): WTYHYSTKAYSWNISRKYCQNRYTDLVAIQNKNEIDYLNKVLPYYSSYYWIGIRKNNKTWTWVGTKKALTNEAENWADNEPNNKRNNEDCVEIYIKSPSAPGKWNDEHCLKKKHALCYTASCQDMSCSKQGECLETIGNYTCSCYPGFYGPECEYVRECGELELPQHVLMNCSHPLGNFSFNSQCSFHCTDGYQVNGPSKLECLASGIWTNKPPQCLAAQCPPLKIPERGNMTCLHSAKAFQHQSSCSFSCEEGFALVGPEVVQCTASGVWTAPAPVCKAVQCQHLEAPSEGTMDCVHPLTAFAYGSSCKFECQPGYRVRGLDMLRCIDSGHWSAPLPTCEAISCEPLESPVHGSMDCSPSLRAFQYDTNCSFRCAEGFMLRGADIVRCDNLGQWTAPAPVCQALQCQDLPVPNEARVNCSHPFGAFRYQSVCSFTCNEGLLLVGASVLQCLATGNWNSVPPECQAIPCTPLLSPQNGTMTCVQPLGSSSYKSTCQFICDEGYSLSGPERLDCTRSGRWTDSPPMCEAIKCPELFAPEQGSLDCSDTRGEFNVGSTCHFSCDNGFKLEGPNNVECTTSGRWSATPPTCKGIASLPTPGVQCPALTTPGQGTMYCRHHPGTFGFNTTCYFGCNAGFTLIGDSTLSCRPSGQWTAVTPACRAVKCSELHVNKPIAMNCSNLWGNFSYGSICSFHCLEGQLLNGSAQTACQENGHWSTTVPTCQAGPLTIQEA
procedure_text: Sialyl Lewis x Tyrosine Sulfate Assay (sLex TSA), P-selectin
Type: binding
condition_set: compound at 100 μM, read-out: P-Selectin [% Inhib.]
readout: inhibition at 100 µM (%)

{"columns": ["molecule", "data_value"],
 "data": [
  ["O=C(O)Cc1ccc(-c2ccccc2NC(=O)Cc2ccc(O)c(O)c2O)s1 [Compound 41]", 92],
  ["O=C(CCc1cc(O)c(O)c(O)c1)NCc1ccc(C(=O)O)cc1 [Compound 120]", 88],
  ["Cc1ccc(C(=O)O)cc1NC(=O)CCc1ccc(O)c(O)c1O [Compound 116]", 88],
  ["O=C(/C=C/c1ccc(O)c(O)c1O)Nc1cccc(C(=O)O)c1 [Compound 99]", 99],
  ["O=C(O)Cc1cccc(-c2ccccc2NC(=O)Cc2cc(O)c(O)c(O)c2)c1 [Compound 94]", 78],
  ["COC(=O)Cc1cccc(-c2ccccc2NC(=O)CCc2cc(O)c(O)c(O)c2)c1 [Compound 73]", 84],
  ["O=C(Cc1cc(O)c(O)c(O)c1)NCc1ccc(C(=O)O)cc1 [Compound 118]", 79],
  ["Cc1ccc(C(=O)O)cc1NC(=O)CCc1cc(O)c(O)c(O)c1 [Compound 108]", 86],
  ["O=C(O)Cc1cccc(NC(=O)Cc2ccc(O)c(O)c2O)c1 [Compound 112]", 97]
]}

----------
tested_target: human E-Selectin-IgG-chimera (Homo sapiens)
Construct: fused on or other part: human IgG Fc part, a tag and dimerising handle that is captured by the goat anti-human Fc antibody on the plate
procedure_text: Sialyl Lewis x Tyrosine Sulfate Assay (sLex TSA), E-selectin
Format: binding
condition_set: compound at 100 μM, read-out: E-Selectin [% Inhib.]
readout: inhibition at 100 µM (%)

Worked examples, 3 molecules total:
{"columns": ["molecule", "inhibition at 100 µM / %"],
 "data": [
  ["O=C(Cc1cc(O)c(O)c(O)c1)NCC1CCC(C(=O)O)CC1 (centres unmarked) [Compound 104]", 67],
  ["O=C(Cc1cc(O)c(O)c(O)c1)Nc1cccc(C(=O)O)c1 [Compound 96]", 63],
  ["O=C(/C=C/c1ccc(O)c(O)c1O)Nc1ccc(C(=O)O)cc1 [Compound 97]", 51]
]}

a: O=C(CCc1cc(O)c(O)c(O)c1)NCc1ccc(C(=O)O)cc1 [Compound 120]
b: O=C(O)Cc1cccc(NC(=O)Cc2cc(O)c(O)c(O)c2)c1 [Compound 98]
Query: Task for the reader: decide whether a or b has the larger inhibition at 100 µM. Select an item and report its label.
Reply: a
(a: 92%, b: 58%)

----------
tested_target: human L-Selectin-IgG-chimera (Homo sapiens, UniProt P14151)
Construct: fused on or other part: human IgG Fc part, a tag and dimerising handle that is captured by the goat anti-human Fc antibody on the plate
procedure_text: Sialyl Lewis x Tyrosine Sulfate Assay (sLex TSA), L-selectin
Type: binding
condition_set: compound at 100 μM
readout: L-Selectin [% Inhib.] (%)

Use the examples below as a reference point.
{"columns": ["molecule", "L-Selectin [% Inhib.], %"],
 "data": [
  ["Cc1ccc(C(=O)O)cc1NC(=O)Cc1cc(O)c(O)c(O)c1 [Compound 107]", 75],
  ["Cc1cccc(NC(=O)Cc2ccc(O)c(O)c2O)c1 [Compound 122]", 87],
  ["O=C(O)Cc1cccc(-c2ccccc2NC(=O)CCc2cc(O)c(O)c(O)c2)c1 [Compound 95]", 81],
  ["O=C(CCc1cc(O)c(O)c(O)c1)Nc1cccc(C(=O)O)c1 [Compound 110]", 92],
  ["O=C(O)Cc1ccc(-c2ccccc2NC(=O)Cc2cc(O)c(O)c(O)c2)s1 [Compound 103]", 81]
]}

P: Cc1c(NC(=O)Cc2ccc(O)c(O)c2O)cccc1C(=O)O [Compound 113]
Q: Cc1oc(-c2ccc(NC(=O)Cc3cc(O)c(O)c(O)c3)cc2)cc1C(=O)O [Compound 101]
Query: Higher L-Selectin [% Inhib.]: P or Q ? Response format: the label of the selected entry.
Reply: Q
(Q: 95%, P: 48%)

A: O=C(Cc1ccc(O)c(O)c1O)NCc1ccc(C(=O)O)cc1 [Compound 119]
B: O=C(CCc1ccc(O)c(O)c1O)Nc1cccc(C(=O)O)c1 [Compound 114]
Query: Given A and B , report the one with the higher recorded L-Selectin [% Inhib.]. Choose, then provide that item's label.
Reply: B
(B: 95%, A: 55%)

----------
tested_target: human L-Selectin-IgG-chimera (Homo sapiens)
Construct: fused on or other part: human IgG Fc part, a tag and dimerising handle that is captured by the goat anti-human Fc antibody on the plate
Sequence (P14151 39-318 limits assumed): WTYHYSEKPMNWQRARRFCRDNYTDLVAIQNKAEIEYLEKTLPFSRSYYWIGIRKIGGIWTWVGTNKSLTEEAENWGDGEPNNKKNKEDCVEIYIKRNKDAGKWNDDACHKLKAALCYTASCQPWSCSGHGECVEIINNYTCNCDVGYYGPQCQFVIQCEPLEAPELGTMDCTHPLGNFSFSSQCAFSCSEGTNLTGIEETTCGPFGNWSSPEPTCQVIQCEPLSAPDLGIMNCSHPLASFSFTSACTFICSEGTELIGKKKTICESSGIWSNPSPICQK
procedure_text: Sialyl Lewis x Tyrosine Sulfate Assay (sLex TSA), L-selectin
readout: IC50 (µM)

P: Cc1c(NC(=O)CCc2cc(O)c(O)c(O)c2)cccc1C(=O)O
Q: O=C(Cc1cc(O)c(O)c(O)c1)NCC1CCC(C(=O)O)CC1 (stereo not shown)
R: O=C(O)Cc1cccc(NC(=O)Cc2ccc(O)c(O)c2O)c1
Query: Please produce an ascending ranking of these compounds based on IC50. // ordering of labels required in reply
Reply: Q, R, P
(Q: 3.3 µM, R: 16 µM, P: 109 µM)

1: O=C(Cc1cc(O)c(O)c(O)c1)NCc1ccc(C(=O)O)cc1
2: O=C(O)Cc1cccc(-c2ccccc2NC(=O)Cc2cc(O)c(O)c(O)c2)c1
Query: Just curious, which one has the larger IC50 reading, 1 or 2 ? Write down the label of the entry you select.
Reply: 1

a: O=C(O)Cc1ccc(-c2ccccc2NC(=O)CCc2cc(O)c(O)c(O)c2)s1
b: O=C(CCc1cc(O)c(O)c(O)c1)NCC1CCC(C(=O)O)CC1 (stereo not shown)
Query: Select the item whose IC50 value is smaller, choosing between a and b . Answer = label.
Reply: a

----------
tested_target: human E-Selectin-IgG-chimera (Homo sapiens, UniProt P16581)
Construct: fused on or other part: human IgG Fc part, a tag and dimerising handle that is captured by the goat anti-human Fc antibody on the plate
procedure_text: Sialyl Lewis x Tyrosine Sulfate Assay (sLex TSA), E-selectin
pIC50: −log10 of the molar value.
readout: pIC50

Field: example entries. Status: answers known.
{"columns": ["compound", "readout", "data_value"],
 "data": [
  ["O=C(CCc1cc(O)c(O)c(O)c1)NCc1ccc(C(=O)O)cc1 [Compound 120]", "pIC50", 5.08],
  ["O=C(Cc1cc(O)c(O)c(O)c1)Nc1cccc(C(=O)O)c1 [Compound 96]", "pIC50", 6.10]
]}

a: Cc1c(NC(=O)CCc2cc(O)c(O)c(O)c2)cccc1C(=O)O [Compound 117]
b: O=C(O)Cc1ccc(-c2ccccc2NC(=O)c2cccc(-c3ccc(O)c(O)c3O)c2)s1 [Compound 48]
Query: Between the two listed entries a and b , which has its pIC50 at the higher number? Returns: label corresponding to the selected item.
Reply: a
(a: 5.08, b: 3.88)

a: O=C(O)Cc1ccc(-c2ccccc2NC(=O)CCc2cc(O)c(O)c(O)c2)s1 [Compound 102]
b: O=C(O)Cc1cccc(NC(=O)Cc2cc(O)c(O)c(O)c2)c1 [Compound 98]
c: O=C(Cc1cc(O)c(O)c(O)c1)NCc1ccc(C(=O)O)cc1 [Compound 118]
d: O=C(Cc1ccc(O)c(O)c1O)Nc1cccc(C(=O)O)c1 [Compound 111]
e: O=C(/C=C/c1ccc(O)c(O)c1O)Nc1ccc(C(=O)O)cc1 [Compound 97]
Query: Hi! Can you put these in order of pIC50, lowest number first? List labels; respect the requested ordering.
Reply: e, c, a, b, d

----------
tested_target: human E-Selectin-IgG-chimera (Homo sapiens, UniProt P16581)
Construct: fused on or other part: human IgG Fc part, a tag and dimerising handle that is captured by the goat anti-human Fc antibody on the plate
Sequence (P16581 22-175 limits assumed): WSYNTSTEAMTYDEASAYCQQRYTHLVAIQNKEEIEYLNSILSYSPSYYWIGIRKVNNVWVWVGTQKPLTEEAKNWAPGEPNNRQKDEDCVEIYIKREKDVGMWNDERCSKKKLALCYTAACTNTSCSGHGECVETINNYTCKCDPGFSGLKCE
procedure_text: Sialyl Lewis x Tyrosine Sulfate Assay (sLex TSA), E-selectin
Type: binding
condition_set: compound at 100 μM, read-out: E-Selectin [% Inhib.]
readout: inhibition at 100 µM (%)

Illustrative cases are given below, each with its answer.
{"columns": ["compound", "inhibition at 100 µM / %"],
 "data": [
  ["Cc1ccc(C(=O)O)cc1NC(=O)CCc1cc(O)c(O)c(O)c1", 85],
  ["O=C(/C=C/c1ccc(O)c(O)c1O)Nc1cccc(C(=O)O)c1", 71],
  ["O=C(O)Cc1cccc(NC(=O)Cc2ccc(O)c(O)c2O)c1", 38]
]}

1: O=C(Cc1cc(O)c(O)c(O)c1)NCc1ccc(C(=O)O)cc1
2: O=C(CCc1cc(O)c(O)c(O)c1)NCC1CCC(C(=O)O)CC1 (stereo not drawn)
Query: Compare inhibition at 100 µM: is it lower for 1 or for 2 ? Kindly state the label of the option you pick.
Reply: 1
(1: 53%, 2: 90%)
